system: XIP peptide (Xip251-270) binding; test: small-molecule binders of XIP peptide, primary screen, biochemical, small-molecule microarray, fluorescence 635/667 nm, 0.1 µg/mL protein (AID 1182); conditions: fluorescent protein binding, 635 nm, higher = more signal, called active from +8 up or from −8 down
Binary classification by composite z-score, with 0.2 as an inclusive lower bound for yes; all other cases are no.

[
  {
    "Molecule": "CS(=O)(=O)CCOC(=O)C1=CC(CCCO)=CC(c2ccc(CN3CCCC3)cc2)N(Cc2cc3c(cc2Br)OCO3)C=C1C(=O)OCCS(C)(=O)=O (stereo not given)",
    "Assigned Category": "yes"
  }
]

Incoming: Tell me whether composite z-score is at least 0.2 here: CCCN1C(=O)[C@]2(CCS(=O)(=O)c3ccccc3)N=C(c3ccc(OCCCO)cc3)O[C@@H]2c2ccccc21
Outgoing: no

Incoming: Is reported composite z-score greater than or equal to 0.2 here: C#CCNC(=O)[C@H](Cc1ccccc1)NC(=O)CCC(=O)O
Outgoing: yes

Incoming: Check if composite z-score >= 0.2 (inclusive). Item: COc1cc2c(cc1O)C=[N+](Cc1cccc(OC(F)(F)F)c1)CC2
Outgoing: no

Incoming: Given COc1ccc([Si](C)(C)[C@H]2[C@H](CC(=O)N3Cc4ccccc4C[C@H]3CO)O[C@@]3(C(=O)N(Cc4ccc(N5CCC5=O)cc4)c4ccccc43)[C@@H]2C)cc1 , state whether its composite z-score is at least 0.2.
Outgoing: no

* * *

Each entry below lists one item and its recorded composite z-score value.
system: Lefty1; assay: Lefty1 binders on small-molecule microarrays, primary screen, biochemical, small-molecule microarray, 635/667 nm fluorescence (AID 1139); conditions: small-molecule microarray binding, fluorescence 635/667; higher = more signal
Answer with a bare number; do not write a unit.

[
  {
    "Smiles Record": "C=CC[C@]12N=C(c3ccc(OCCCO)cc3)O[C@H]1c1ccccc1N(Cc1ccccc1)C2=O",
    "Measured": -0.0331
  },
  {
    "Smiles Record": "Cc1ccc(S[C@]2(C(=O)NCC(F)(F)F)CC(=O)N(C(C)C)[C@@H]2c2ccc(CO)cc2I)cc1",
    "Measured": -1.13
  }
]

Incoming: Name the recorded composite z-score for C=CCNC(=O)[C@H]1[C@@H]2C(=O)O[C@@H](c3ccccc3)[C@@H](c3ccccc3)N2[C@@H](c2ccccc2OCCO)[C@]12C(=O)Nc1ccc(C#CC3=CCCCC3)cc12 .
Outgoing: 0.681

* * *

Recorded composite z-score by entry
target: Neurogenic locus notch homolog protein 2 (Homo sapiens) (UniProt Q04721); test: Notch2 binders on small-molecule microarrays, primary screen, biochemical, small-molecule microarray, 635 nm fluorescence, stem cell growth factors (AID 1073); details: Notch2 binding, higher = more signal
Sequence (Q04721 whole entry, looked up): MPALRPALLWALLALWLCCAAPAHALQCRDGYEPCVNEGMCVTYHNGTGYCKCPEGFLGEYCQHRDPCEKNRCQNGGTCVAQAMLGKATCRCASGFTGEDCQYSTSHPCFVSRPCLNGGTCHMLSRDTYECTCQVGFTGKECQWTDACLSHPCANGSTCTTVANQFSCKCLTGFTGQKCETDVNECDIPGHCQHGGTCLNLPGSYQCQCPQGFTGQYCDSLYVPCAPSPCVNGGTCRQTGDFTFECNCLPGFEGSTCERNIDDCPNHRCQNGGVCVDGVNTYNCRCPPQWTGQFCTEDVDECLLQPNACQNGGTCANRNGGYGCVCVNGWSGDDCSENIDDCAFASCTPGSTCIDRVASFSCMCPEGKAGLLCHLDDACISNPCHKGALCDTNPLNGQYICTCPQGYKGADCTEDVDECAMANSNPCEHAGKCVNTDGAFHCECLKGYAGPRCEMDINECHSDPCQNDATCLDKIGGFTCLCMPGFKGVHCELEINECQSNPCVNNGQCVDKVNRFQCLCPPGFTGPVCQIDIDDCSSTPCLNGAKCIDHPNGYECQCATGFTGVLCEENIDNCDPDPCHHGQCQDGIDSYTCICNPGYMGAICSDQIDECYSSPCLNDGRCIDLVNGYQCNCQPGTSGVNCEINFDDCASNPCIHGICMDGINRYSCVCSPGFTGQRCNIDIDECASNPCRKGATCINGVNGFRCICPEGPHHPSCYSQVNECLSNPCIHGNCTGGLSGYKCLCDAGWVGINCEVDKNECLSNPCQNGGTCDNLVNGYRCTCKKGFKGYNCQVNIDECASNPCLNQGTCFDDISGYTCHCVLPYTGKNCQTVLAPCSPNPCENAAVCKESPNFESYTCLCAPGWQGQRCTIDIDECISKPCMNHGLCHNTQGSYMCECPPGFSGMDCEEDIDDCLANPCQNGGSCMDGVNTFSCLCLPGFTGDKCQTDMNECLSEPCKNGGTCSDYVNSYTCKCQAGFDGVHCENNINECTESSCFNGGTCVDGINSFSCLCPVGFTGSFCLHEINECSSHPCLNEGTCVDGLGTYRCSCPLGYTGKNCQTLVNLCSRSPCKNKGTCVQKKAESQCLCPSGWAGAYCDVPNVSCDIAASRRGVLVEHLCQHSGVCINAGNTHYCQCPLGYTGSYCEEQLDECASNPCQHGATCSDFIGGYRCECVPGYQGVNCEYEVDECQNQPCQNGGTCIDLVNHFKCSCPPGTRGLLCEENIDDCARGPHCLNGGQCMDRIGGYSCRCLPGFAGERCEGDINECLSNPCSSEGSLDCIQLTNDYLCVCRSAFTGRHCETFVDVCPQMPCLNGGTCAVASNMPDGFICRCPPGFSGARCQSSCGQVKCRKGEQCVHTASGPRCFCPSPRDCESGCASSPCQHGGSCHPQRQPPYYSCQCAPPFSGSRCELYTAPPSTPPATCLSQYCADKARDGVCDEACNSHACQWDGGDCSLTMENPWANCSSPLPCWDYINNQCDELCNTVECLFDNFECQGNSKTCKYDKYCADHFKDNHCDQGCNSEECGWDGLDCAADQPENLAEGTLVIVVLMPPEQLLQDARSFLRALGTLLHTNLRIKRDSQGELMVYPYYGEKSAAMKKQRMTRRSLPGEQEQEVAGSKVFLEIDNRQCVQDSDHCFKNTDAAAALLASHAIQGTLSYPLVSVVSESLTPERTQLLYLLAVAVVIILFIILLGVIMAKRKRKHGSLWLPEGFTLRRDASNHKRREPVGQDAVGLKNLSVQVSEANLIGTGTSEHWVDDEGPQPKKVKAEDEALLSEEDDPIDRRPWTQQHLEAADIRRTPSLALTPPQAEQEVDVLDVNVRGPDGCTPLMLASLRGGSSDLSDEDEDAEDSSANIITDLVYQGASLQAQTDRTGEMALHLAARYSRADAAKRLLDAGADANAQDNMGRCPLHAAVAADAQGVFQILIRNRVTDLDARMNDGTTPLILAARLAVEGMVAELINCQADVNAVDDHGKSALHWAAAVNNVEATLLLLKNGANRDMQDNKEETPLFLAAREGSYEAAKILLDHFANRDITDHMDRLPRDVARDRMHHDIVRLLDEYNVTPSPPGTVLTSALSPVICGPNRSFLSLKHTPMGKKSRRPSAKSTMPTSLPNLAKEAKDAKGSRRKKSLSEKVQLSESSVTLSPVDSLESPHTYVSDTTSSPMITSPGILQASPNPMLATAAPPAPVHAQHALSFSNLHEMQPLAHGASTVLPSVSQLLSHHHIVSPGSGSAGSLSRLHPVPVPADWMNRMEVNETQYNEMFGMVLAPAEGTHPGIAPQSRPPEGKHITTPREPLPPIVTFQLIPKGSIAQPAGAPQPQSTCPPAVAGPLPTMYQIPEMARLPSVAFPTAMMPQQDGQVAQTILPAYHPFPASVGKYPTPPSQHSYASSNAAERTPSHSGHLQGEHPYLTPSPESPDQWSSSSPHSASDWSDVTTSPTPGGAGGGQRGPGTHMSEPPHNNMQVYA

Example cases with answers are listed next.
[
  {
    "Compound": "CCC(CC)C(O)C1C=CC2C(=O)N(C)C(=O)C2N1Nc1ccccc1 (stereo not drawn)",
    "Tested System": "Neurogenic locus notch homolog protein 2 (Homo sapiens) (UniProt Q04721)",
    "composite z-score": 1.47
  },
  {
    "Compound": "CN1C(=O)C2C=CC(C(O)c3ccc(I)cc3)N(N3CCCCC3)C2C1=O (stereo not drawn)",
    "Tested System": "Neurogenic locus notch homolog protein 2 (Homo sapiens) (UniProt Q04721)",
    "composite z-score": 1.71
  },
  {
    "Compound": "COCCOC(=O)N1C(=O)[C@@]2(c3ccccc31)[C@H](c1ccc(O)cc1)N1[C@H](c3ccccc3)[C@H](c3ccccc3)OC(=O)[C@H]1[C@@H]2C(=O)NC[C@H](O)c1ccccc1",
    "Tested System": "Neurogenic locus notch homolog protein 2 (Homo sapiens) (UniProt Q04721)",
    "composite z-score": 0.187
  },
  {
    "Compound": "O=C1OCCC/C=C\\[C@H]2OC34C=CCN(Cn5nnc6ccccc65)C(=O)[C@H]3N(CCO)C(=O)[C@@H]4C12 (stereo partly drawn)",
    "Tested System": "Neurogenic locus notch homolog protein 2 (Homo sapiens) (UniProt Q04721)",
    "composite z-score": -0.918
  },
  {
    "Compound": "C=CCOC(=O)[C@H]1[C@@H]2C(=O)O[C@@H](c3ccccc3)[C@@H](c3ccccc3)N2[C@@H](c2ccc(OCCOC(=O)[C@H]3C[C@H]4C(=O)N[C@@H](CC(C)C)C(=O)N4[C@H]3c3ccc(O)cc3)cc2)[C@]12C(=O)Nc1ccc(I)cc12",
    "Tested System": "Neurogenic locus notch homolog protein 2 (Homo sapiens) (UniProt Q04721)",
    "composite z-score": 0.82
  },
  {
    "Compound": "CCCC=C(CCC)[C@@H](NS(=O)(=O)c1cccs1)c1ccc(C(=O)OC)cc1",
    "Tested System": "Neurogenic locus notch homolog protein 2 (Homo sapiens) (UniProt Q04721)",
    "composite z-score": 1.53
  },
  {
    "Compound": "COc1ccc(C(O)C2C=CC3C(=O)NC(=O)C3N2Nc2ccccn2)c2ccccc12 (stereo not drawn)",
    "Tested System": "Neurogenic locus notch homolog protein 2 (Homo sapiens) (UniProt Q04721)",
    "composite z-score": 0.388
  },
  {
    "Compound": "CC(=O)N1Cc2ccccc2C[C@@]2(COC(c3ccc(OCCCO)cc3)=N2)C1=O",
    "Tested System": "Neurogenic locus notch homolog protein 2 (Homo sapiens) (UniProt Q04721)",
    "composite z-score": 1.18
  },
  {
    "Compound": "O=C1OCCC/C=C\\[C@H]2OC34C=CCN(Cc5ccccc5)C(=O)[C@H]3N(CCCCCCO)C(=O)[C@@H]4C12 (stereo partly drawn)",
    "Tested System": "Neurogenic locus notch homolog protein 2 (Homo sapiens) (UniProt Q04721)",
    "composite z-score": -0.793
  },
  {
    "Compound": "O=C(NCc1ccccc1)[C@@]1(Cc2ccccc2)N=C(c2ccc(OCCCO)cc2)O[C@H]1c1ccccc1",
    "Tested System": "Neurogenic locus notch homolog protein 2 (Homo sapiens) (UniProt Q04721)",
    "composite z-score": 1.56
  }
]

Incoming: Item COc1ccc([Si](C)(C)[C@@H]2[C@@H](CC(=O)N3Cc4ccccc4C[C@H]3CO)O[C@]3(C(=O)N(C)c4c(Br)cc(C)cc43)[C@H]2C)cc1 has what recorded composite z-score?
Outgoing: 0.557

Incoming: Need composite z-score of [N-]=[N+]=NCc1ccccc1[C@@H]1OC(c2ccc(OCCCO)cc2)=N[C@]1(CCS(=O)(=O)c1ccccc1)C(=O)NCCN1CCOCC1 , thanks.
Outgoing: 1.65

Incoming: Item under review: C=CCNC(=O)[C@H]1[C@@H]2C(=O)O[C@@H](c3ccccc3)[C@@H](c3ccccc3)N2[C@@H](c2ccccc2OCCO)[C@]12C(=O)Nc1ccc(C#CC3=CCCCC3)cc12 . Reported composite z-score?
Outgoing: 1.04

* * *

molecular target: Calmodulin-1 (Homo sapiens); assay: calcium-bound CALM1 binders on microarrays, profiling panel, artefact control for SMM control-protein annotation, biochemical, small-molecule microarray, Cy5-labelled CALM1, plus calcium (AID 1112); settings: Cy5-CALM1 binding fluorescence, higher = more signal;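 also: score merges spot fluorescence with signal to noise from triplicate slides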
The compounds listed here are annotated with their composite z-score.
Please give only the number in your answer, with no unit.

Worked set:
[
  {
    "Compound": "[N-]=[N+]=NCc1ccccc1C[C@]1(C(=O)N2CCOCC2)N=C(c2ccc(OCCCO)cc2)O[C@H]1c1ccccc1N=[N+]=[N-]",
    "Measured": 0.792
  },
  {
    "Compound": "COCCOC(=O)N1C(=O)[C@@]2(c3cc(C#Cc4ccc(OC)cc4)ccc31)[C@H](C(N)=O)[C@H]1C(=O)O[C@H](c3ccccc3)[C@H](c3ccccc3)N1[C@@H]2c1ccccc1OCCO",
    "Measured": 0.618
  },
  {
    "Compound": "COCCOC(=O)N1C(=O)[C@@]2(c3cc(C#CCCO)ccc31)[C@H](C(=O)N1CCN(c3ncccn3)CC1)[C@H]1C(=O)O[C@H](c3ccccc3)[C@H](c3ccccc3)N1[C@@H]2c1ccccc1OCCO",
    "Measured": 0.55
  },
  {
    "Compound": "CS(=O)(=O)CCOC(=O)C1=CC(CCCO)=CC(c2ccc(CN3CCCC3)cc2)N(Cc2cc3c(cc2Br)OCO3)C=C1C(=O)OCCS(C)(=O)=O (stereo not given)",
    "Measured": 0.484
  }
]

Incoming: Request the reported composite z-score associated with CC(=O)N1Cc2ccccc2C[C@@]2(COC(c3ccc(OCCCO)cc3)=N2)C1=O
Outgoing: 0.845

* * *

test system: Wnt5a (protein binding on small-molecule microarray); test: Wnt5a binders on small-molecule microarray, primary screen, biophysical, 635/667 nm fluorescence (AID 1142); details: 635 nm fluorescence, higher = more signal;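 also: fluorescence read at 667 nm with signal to noise per printed feature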
# composite z-score binned as interval 1: < 0.007; interval 2: ≥ 0.007 and < 0.4; interval 3: ≥ 0.4

Some solved entries appear below for comparison.
[
  {
    "Compound": "COCCOC(=O)N1C(=O)[C@@]2(c3cc(C#CCNC(N)=O)ccc31)[C@H](C(=O)NC[C@H](O)c1ccccc1)[C@H]1C(=O)O[C@H](c3ccccc3)[C@H](c3ccccc3)N1[C@@H]2c1ccccc1OCCO",
    "Assigned Category": "interval 3"
  },
  {
    "Compound": "CCOC1=C2C(CN(S(=O)(=O)c3ccc(C)cc3)C2c2ccc(C)cc2)C2C(=O)N(c3ccccc3)C(=O)C2C1 (centres undefined)",
    "Assigned Category": "interval 1"
  },
  {
    "Compound": "CN(C)CCCNC(=O)[C@@]1(c2ccc([N+](=O)[O-])cc2)CC(=O)N(C2CCCCC2)[C@@H]1c1ccc(CO)cc1",
    "Assigned Category": "interval 1"
  },
  {
    "Compound": "C=CCC(OC(C)=O)[C@@H]1[C@@H](N(Cc2ccc(-c3cccc(C(F)(F)F)c3)o2)C(=O)Cc2ccc(F)cc2)c2cc(OCCCO)ccc2N1C(=O)Cc1ccc(OC)cc1 (some centres undefined)",
    "Assigned Category": "interval 1"
  },
  {
    "Compound": "CC(C)(C)OC(=O)CC[C@]12N=C(c3ccc(OCCCO)cc3)O[C@H]1c1ccccc1N(CCS(=O)(=O)c1ccccc1)C2=O",
    "Assigned Category": "interval 3"
  }
]

Incoming: Into which bin does this compound go? CCN(CC)c1ccc(N2CC=CC34O[C@@H]5/C=C\CCCOC(=O)C5[C@H]3C(=O)N(CCO)[C@@H]4C2=O)cc1 (some centres undefined)
Outgoing: interval 1

Incoming: Band of CCOC(=O)C=Cc1cc([N+](=O)[O-])ccc1O ?
Outgoing: interval 1

Incoming: Lab note: which band did COc1ccc(C#Cc2ccc3c(c2)[C@]2(C(=O)N3)[C@H](c3ccccc3OCCO)N3[C@H](c4ccccc4)[C@H](c4ccccc4)OC(=O)[C@H]3[C@@H]2C(=O)O)cc1 land in?
Outgoing: interval 3

Incoming: Class (by measured composite z-score) for COCCOC(=O)N1C(=O)[C@@]2(c3cc(C#CC4=CCCCC4)ccc31)[C@H](C(N)=O)[C@H]1C(=O)O[C@H](c3ccccc3)[C@H](c3ccccc3)N1[C@@H]2c1ccc(OCCO)cc1
Outgoing: interval 2

Incoming: Which of the defined bands does the recorded composite z-score of CC(=O)n1cc(C(O)C2C=CC3C(=O)N(C)C(=O)C3N2Nc2ccccc2)c2ccccc21 (centres undefined) sit within?
Outgoing: interval 2

Incoming: Entry COc1ccc([Si](C)(C)[C@H]2[C@H](CCO)O[C@@]3(C(=O)N(Cc4ccc(N5C(=O)COc6ccccc65)cc4)c4ccccc43)[C@@H]2C)cc1 belongs to which category?
Outgoing: interval 1

Incoming: Hi, small favor: classify COC(=O)c1c(CC[C@@H](CO)NC(=O)N[C@@H](C)Cn2cc(C3(O)CCCCC3)nn2)oc(C(C)=O)c1C(=O)OC by its composite z-score when you get a moment.
Outgoing: interval 2

Incoming: Given C=CC[C@]1(C(=O)N2CCCCC2)N=C(c2ccc(OCCCO)cc2)O[C@H]1c1ccccc1 , name the class its composite z-score places it in.
Outgoing: interval 2

Incoming: Sort into band: COC(=O)[C@@]1(Cc2ccccc2)[C@H]2c3cc(C(=O)N4CCCC4)n(Cc4nc5ccccc5[nH]4)c3C[C@H]2CN1C(=O)c1ccccc1
Outgoing: interval 2

Origin of the recorded values: PubChem BioAssay
